Readout kind: flash point

In the examples that follow, each entry is paired with its recorded flash point.
Query :: Find the recorded flash point belonging to CO[Si](OC)(OC)c1ccc(N)cc1 and report it.
Result :: 180.00 °C

Query :: Similarly, C[Si](C)(C)CN ?
Result :: 9.00 °C

Next up:
Query :: Reported flash point, compound C=CC[SiH](C)C : ____
Result :: -20.00 °C

---

Readout kind: flash point (°C)
Numbers only, in °C.

Some entries whose results are on file:
Query :: Item CC(C)N(C(=O)SCC(Cl)=C(Cl)Cl)C(C)C has what recorded flash point?
Result :: 90.00

Query :: Field entry: C=Cc1ccc(C)cc1
Result :: 52.00

Query :: Next entry: CCOC(=O)C#Cc1ccccc1 [ethyl 3-phenylprop-2-ynoate]
Result :: 113.00

Hello, I would appreciate it if you could give flash point for each entry below.
1. CCCCCC(C)=O
2. CCCCC(C)=O
3. COC(=O)Nc1cccc(OC(=O)Nc2cccc(C)c2)c1 [[3-(methoxycarbonylamino)phenyl] N-(3-methylphenyl)carbamate]

Result ::
[39.00, 23.00, 74.00]
